# Emax (% I) per record follows
# ASSAY_SYSTEM: T1, CRF1R receptor (UniProt P34998 24-415, limits assumed)
# T1 sequence (looked up): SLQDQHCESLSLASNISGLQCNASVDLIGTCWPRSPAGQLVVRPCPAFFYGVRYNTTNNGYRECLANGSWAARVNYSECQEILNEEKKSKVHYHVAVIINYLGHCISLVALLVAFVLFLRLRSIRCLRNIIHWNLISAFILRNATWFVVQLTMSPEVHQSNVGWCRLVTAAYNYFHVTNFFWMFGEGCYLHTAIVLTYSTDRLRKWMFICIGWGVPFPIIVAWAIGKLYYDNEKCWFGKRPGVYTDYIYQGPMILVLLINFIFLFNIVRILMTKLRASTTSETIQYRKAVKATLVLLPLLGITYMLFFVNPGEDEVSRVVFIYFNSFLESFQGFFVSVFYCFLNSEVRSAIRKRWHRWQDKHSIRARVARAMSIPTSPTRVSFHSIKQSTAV
# METHOD: cell-based or functional assay
*1 amine or outer side, *2 acyl side, *3 side chain or, on linkers, in order; H or OH if unused. Where no end group is shown, it is not given here. Side-chain parts run from the residue outwards. [ ]: non-standard residue; d: D form. The star is where a group is joined. C18 diacid = O=C(O)CCCCCCCCCCCCCCCCC(=O)*; C16 diacid = O=C(O)CCCCCCCCCCCCCCC(=O)*; γGlu = O=C(O)[C@H](CCC(=O)[*:2])N[*:1]; αMeL = CC(C)C[C@](C)(N)C(=O)O; AEEA = NCCOCCOCC(=O)O
State the answer as a number, implicitly in %.

[[record]]
binder = "IVLSLDVPIKLK([AEEA-AEEA-γGlu-C18 diacid])KILLEQEKQKKQREQAETNKQILAQV-NH2 (not fully specified (residue 7); printed as IVLSLDVPIKLK*KILLEQEKQKKQREQAETNKQILAQV-NH2) [SEQ ID NO 149]"
metric = "Emax (% I)"
reported_result = 4


# return recorded Emax (% I) for input Ac-IVLSLDVPIK[αMeL]K([γGlu-C16 diacid])KILLEQEKQKKQREQAETNVQILAQV-NH2 [SEQ ID NO 49]
-3
